Tested on: 874868-142-R-J2-PDC complex spheroids, growth % test/control
experimental protocol: Anticancer human tumor 874868-142-R-J2-PDC patient-derived head and neck squamous carcinoma cell line growth inhibition [CLK]
conditions: second compound 0.1 µM; first compound 0.316 µM; stronger effect = lower value
Exercise: state measured viability, T/C for each of the compounds provided.
State the answer as a number, implicitly in %.

Problem: Form entry - test system: 874868-142-R-J2-PDC complex spheroids, growth % test/control; read-out: viability, T/C; compound: O=C(c1cc(Cc2n[nH]c(=O)c3ccccc23)ccc1F)N1CCN(C(=O)C2CC2)CC1 + CNC(=O)c1ccc(Nc2nc(OC3CCCC3)c3c(-c4ccc5nc(C)oc5c4)c[nH]c3n2)c(OC)c1
Solution: 93.7

Problem: Give viability, T/C (874868-142-R-J2-PDC complex spheroids, growth % test/control) of the following compound: CC(CO)NC(=O)c1cc(-c2ccc(Cl)cc2)nn(-c2cnn(C)c2)c1=O (stereo unspecified) + CN1CCN(c2cc(C(=O)Nc3cc4cc(-c5cnn(C)c5)ccc4cn3)ccn2)CC1
Solution: 65.8

Problem: What measured viability, T/C is associated with COc1cccc2c1C(=O)c1c(O)c3c(c(O)c1C2=O)CC(O)(C(=O)CO)CC3OC1CC(N)C(O)C(C)O1 (stereo unspecified) + CN1CCN(c2cc(C(=O)Nc3cc4cc(-c5cnn(C)c5)ccc4cn3)ccn2)CC1 on 874868-142-R-J2-PDC complex spheroids, growth % test/control?
Solution: 20.3

Problem: GET /values?readout=viability, T/C&system=874868-142-R-J2-PDC complex spheroids, growth % test/control&item= C=CC(=O)N1CCN(c2nc(=O)n(-c3c(C)ccnc3C(C)C)c3nc(-c4c(O)cccc4F)c(F)cc23)C(C)C1 (stereo unspecified) + CN1CCN(c2cc(C(=O)Nc3cc4cc(-c5cnn(C)c5)ccc4cn3)ccn2)CC1
Solution: 82.2

Problem: Find the measured viability, T/C: item CCc1c2c(nc3ccc(O)cc13)-c1cc3c(c(=O)n1C2)COC(=O)[C@]3(O)CC + CN1CCN(c2cc(C(=O)Nc3cc4cc(-c5cnn(C)c5)ccc4cn3)ccn2)CC1 , target or system 874868-142-R-J2-PDC complex spheroids, growth % test/control.
Solution: 2.29

Problem: Requested read-out viability, T/C, target or system 874868-142-R-J2-PDC complex spheroids, growth % test/control, entry COc1cccc2c1C(=O)c1c(O)c3c(c(O)c1C2=O)CC(O)(C(=O)CO)CC3OC1CC(N)C(O)C(C)O1 (stereo unspecified) + CNC(=O)c1ccc(Nc2nc(OC3CCCC3)c3c(-c4ccc5nc(C)oc5c4)c[nH]c3n2)c(OC)c1
Solution: 23.5

Problem: Item C#Cc1c(F)ccc2cc(O)cc(-c3ncc4c(N5CC6CCC(C5)N6)nc(OCC56CCCN5CC(F)C6)nc4c3F)c12 (stereo unspecified) + CNC(=O)c1ccc(Nc2nc(OC3CCCC3)c3c(-c4ccc5nc(C)oc5c4)c[nH]c3n2)c(OC)c1 with 874868-142-R-J2-PDC complex spheroids, growth % test/control - viability, T/C?
Solution: 66.5

Problem: Hi! What's the reported viability, T/C for Nc1ccccc1NC(=O)c1ccc(CNC(=O)OCc2cccnc2)cc1 + CNC(=O)c1ccc(Nc2nc(OC3CCCC3)c3c(-c4ccc5nc(C)oc5c4)c[nH]c3n2)c(OC)c1 on 874868-142-R-J2-PDC complex spheroids, growth % test/control?
Solution: 94.4

Problem: Notebook: pull reported viability, T/C for 874868-142-R-J2-PDC complex spheroids, growth % test/control, entry CCN1CCN(Cc2ccc(Nc3ncc(F)c(-c4cc(F)c5nc(C)n(C(C)C)c5c4)n3)nc2)CC1 + CN1CCN(c2cc(C(=O)Nc3cc4cc(-c5cnn(C)c5)ccc4cn3)ccn2)CC1
Solution: 62.5

Problem: For the record Nc1ccccc1NC(=O)c1ccc(CNC(=O)OCc2cccnc2)cc1 + CN1CCN(c2cc(C(=O)Nc3cc4cc(-c5cnn(C)c5)ccc4cn3)ccn2)CC1 , what value of viability, T/C is listed for 874868-142-R-J2-PDC complex spheroids, growth % test/control?
Solution: 72.5

Problem: Reported viability, T/C for 874868-142-R-J2-PDC complex spheroids, growth % test/control, given CC(=O)O[C@H]1C(=O)[C@@]2(C)[C@H]([C@H](OC(=O)c3ccccc3)[C@]3(O)C[C@H](OC(=O)[C@H](O)[C@@H](NC(=O)c4ccccc4)c4ccccc4)C(C)=C1C3(C)C)[C@]1(OC(C)=O)CO[C@@H]1C[C@@H]2O + CN1CCN(c2cc(C(=O)Nc3cc4cc(-c5cnn(C)c5)ccc4cn3)ccn2)CC1 ?
Solution: 20

Problem: # value lookup — system 874868-142-R-J2-PDC complex spheroids, growth % test/control, readout viability, T/C, item CC1(C)CCC(CN2CCN(c3ccc(C(=O)NS(=O)(=O)c4ccc(NCC5CCOCC5)c([N+](=O)[O-])c4)c(Oc4cnc5[nH]ccc5c4)c3)CC2)=C(c2ccc(Cl)cc2)C1 + CNC(=O)c1ccc(Nc2nc(OC3CCCC3)c3c(-c4ccc5nc(C)oc5c4)c[nH]c3n2)c(OC)c1
Solution: 86.7

Problem: Give the reported viability, T/C for CC1COCCN1c1cc(C2(S(C)(=N)=O)CC2)nc(-c2ccnc3[nH]ccc23)n1 (stereo unspecified) + CNC(=O)c1ccc(Nc2nc(OC3CCCC3)c3c(-c4ccc5nc(C)oc5c4)c[nH]c3n2)c(OC)c1 (system: 874868-142-R-J2-PDC complex spheroids, growth % test/control).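 Also: spheroids exposed to the compounds for 7 days; 100% = DMSO vehicle control viability.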
Solution: 73.1

Problem: # get_value(readout= viability, T/C, system= 874868-142-R-J2-PDC complex spheroids, growth % test/control) for C=C(F)C(=O)N1CCN(c2nc(OCC3CCCN3C)nc3c2CCN(c2cccc4cccc(Cl)c24)C3)CC1CC#N (stereo unspecified) + CNC(=O)c1ccc(Nc2nc(OC3CCCC3)c3c(-c4ccc5nc(C)oc5c4)c[nH]c3n2)c(OC)c1;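 also: spheroids exposed to the compounds for 7 days; 100% = DMSO vehicle control viability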
Solution: 65.9

Problem: viability, T/C of CCCS(=O)(=O)Nc1ccc(F)c(C(=O)c2c[nH]c3ncc(-c4ccc(Cl)cc4)cc23)c1F + CN1CCN(c2cc(C(=O)Nc3cc4cc(-c5cnn(C)c5)ccc4cn3)ccn2)CC1 on 874868-142-R-J2-PDC complex spheroids, growth % test/control?
Solution: 101

Problem: Recorded viability, T/C for CCCS(=O)(=O)Nc1ccc(F)c(C(=O)c2c[nH]c3ncc(-c4ccc(Cl)cc4)cc23)c1F + CNC(=O)c1ccc(Nc2nc(OC3CCCC3)c3c(-c4ccc5nc(C)oc5c4)c[nH]c3n2)c(OC)c1 with 874868-142-R-J2-PDC complex spheroids, growth % test/control, please?
Solution: 110

Problem: # returns recorded viability, T/C (system: 874868-142-R-J2-PDC complex spheroids, growth % test/control) for COc1c(OCCCN2CCOCC2)ccc2c3n(c(=NC(=O)c4cnc(N)nc4)nc12)CCN3 + CN1CCN(c2cc(C(=O)Nc3cc4cc(-c5cnn(C)c5)ccc4cn3)ccn2)CC1;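 also: spheroids exposed to the compounds for 7 days; 100% = DMSO vehicle control viability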
Solution: 5.07

Problem: Lookup: viability, T/C / 874868-142-R-J2-PDC complex spheroids, growth % test/control / C=C(F)C(=O)N1CCN(c2nc(OCC3CCCN3C)nc3c2CCN(c2cccc4cccc(Cl)c24)C3)CC1CC#N (stereo unspecified) + CN1CCN(c2cc(C(=O)Nc3cc4cc(-c5cnn(C)c5)ccc4cn3)ccn2)CC1
Solution: 75

Problem: What viability, T/C appears in the records for this compound with 874868-142-R-J2-PDC complex spheroids, growth % test/control? CCN1CCN(Cc2ccc(Nc3ncc(F)c(-c4cc(F)c5nc(C)n(C(C)C)c5c4)n3)nc2)CC1 + CNC(=O)c1ccc(Nc2nc(OC3CCCC3)c3c(-c4ccc5nc(C)oc5c4)c[nH]c3n2)c(OC)c1
Solution: 109

Problem: State its viability, T/C on 874868-142-R-J2-PDC complex spheroids, growth % test/control: Nc1ccn(C2OC(CO)C(O)C2(F)F)c(=O)n1 (stereo unspecified) + CN1CCN(c2cc(C(=O)Nc3cc4cc(-c5cnn(C)c5)ccc4cn3)ccn2)CC1
Solution: 61.4

Problem: Report viability, T/C for CC(CO)NC(=O)c1cc(-c2ccc(Cl)cc2)nn(-c2cnn(C)c2)c1=O (stereo unspecified) + CNC(=O)c1ccc(Nc2nc(OC3CCCC3)c3c(-c4ccc5nc(C)oc5c4)c[nH]c3n2)c(OC)c1 tested on 874868-142-R-J2-PDC complex spheroids, growth % test/control.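 Also: spheroids exposed to the compounds for 7 days; 100% = DMSO vehicle control viability.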
Solution: 82.6

Attribution: PubChem BioAssay AID2060601
